- experimental.protocol: Plasma protein binding in ICR mouse neutropenic infection model
- Type: ADME, cell-free
- experimental.parameters: read-out: PPB (converted)
measured.attribute: fraction unbound
// response body must contain only the number

Entry CC(C)C[C@@H]1NC(=O)[C@@H](Cc2ccccc2)NC(=O)[C@H](CCN)NC(=O)[C@@H](NC(=O)[C@H](CN)NC(=O)[C@@H](NC(=O)[C@H](CCN)NC(=O)c2ccc(=O)n(-c3ccccc3)c2)[C@@H](C)O)CCNC(=O)[C@H]([C@@H](C)O)NC(=O)[C@H](CCN)NC(=O)[C@H](CCN)NC1=O ; fraction unbound = 0.54

----------
- experimental.protocol: Fraction unbound in Wistar Han rat plasma
- Format: ADME, cell-free
measured.attribute: fraction unbound
Quick one: just the number, no unit, thanks!

# fraction unbound of CC(C)C[C@@H]1NC(=O)[C@@H](Cc2ccccc2)NC(=O)[C@H](CCN)NC(=O)[C@@H](NC(=O)[C@H](CN)NC(=O)[C@@H](NC(=O)[C@H](CCN)NC(=O)c2ccc(=O)n(-c3ccccc3)c2)[C@@H](C)O)CCNC(=O)[C@H]([C@@H](C)O)NC(=O)[C@H](CCN)NC(=O)[C@H](CCN)NC1=O = 0.81
